# tested_system: Voltage-gated inwardly rectifying potassium channel KCNH2 (Homo sapiens)
# Sequence (Q12809 whole entry): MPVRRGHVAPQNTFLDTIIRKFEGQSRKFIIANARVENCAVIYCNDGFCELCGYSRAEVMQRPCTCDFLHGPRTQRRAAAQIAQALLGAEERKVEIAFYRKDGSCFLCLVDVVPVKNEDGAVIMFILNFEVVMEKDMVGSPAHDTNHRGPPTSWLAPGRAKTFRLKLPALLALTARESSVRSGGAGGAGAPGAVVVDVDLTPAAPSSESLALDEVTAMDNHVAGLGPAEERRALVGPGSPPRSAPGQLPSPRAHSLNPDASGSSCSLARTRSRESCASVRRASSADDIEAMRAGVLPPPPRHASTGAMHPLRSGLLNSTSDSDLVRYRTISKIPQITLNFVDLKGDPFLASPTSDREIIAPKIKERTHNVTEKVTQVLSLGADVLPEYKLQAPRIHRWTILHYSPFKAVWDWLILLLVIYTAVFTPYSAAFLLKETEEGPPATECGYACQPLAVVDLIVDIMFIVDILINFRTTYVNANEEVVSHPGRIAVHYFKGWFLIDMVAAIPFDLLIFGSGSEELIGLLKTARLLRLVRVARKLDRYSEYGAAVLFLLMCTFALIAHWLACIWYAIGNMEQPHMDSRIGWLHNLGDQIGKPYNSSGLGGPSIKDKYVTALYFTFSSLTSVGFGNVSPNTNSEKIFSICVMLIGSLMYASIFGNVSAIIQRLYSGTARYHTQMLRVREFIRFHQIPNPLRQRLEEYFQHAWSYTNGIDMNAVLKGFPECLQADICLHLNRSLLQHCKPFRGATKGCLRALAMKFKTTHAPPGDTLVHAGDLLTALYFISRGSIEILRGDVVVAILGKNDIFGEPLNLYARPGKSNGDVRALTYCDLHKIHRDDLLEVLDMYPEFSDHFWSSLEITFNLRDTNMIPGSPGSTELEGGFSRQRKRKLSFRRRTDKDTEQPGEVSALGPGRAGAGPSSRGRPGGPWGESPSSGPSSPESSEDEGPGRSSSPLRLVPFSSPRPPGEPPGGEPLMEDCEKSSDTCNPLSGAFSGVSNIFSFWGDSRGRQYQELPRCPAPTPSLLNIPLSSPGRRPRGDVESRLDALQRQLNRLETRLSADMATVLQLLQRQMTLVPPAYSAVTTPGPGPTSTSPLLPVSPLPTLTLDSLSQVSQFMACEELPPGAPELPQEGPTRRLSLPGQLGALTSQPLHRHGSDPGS
# experiment_description: Inhibition of human ERG
pIC50: −log10 of the molar value.
Measured pIC50 of individual entries
metric: pIC50

>>> print(df.to_string())
                                        smi  numeric_result
0          COc1cc(Nc2nc(C)cc(N(C)C)n2)ccc1F            5.30
1  COc1cc(OC)cc(C(=O)N[C@H]2CC[C@H](Nc3nc(C)cc(N(C)C)n3)CC2)c1            5.40

* * *

Listing of recorded solubility kinetic by entry.
# experiment_description: Kinetic solubility of the compound in water up to 250 uM by laser nephelometry
# Format: physicochemical
# protocol_conditions: read-out: Kinetic_solubility
metric: solubility kinetic

In [3]: df
Out[3]:
                                    compound              metric    result
 0   COc1cc(Nc2nc(N(C)C)cc(C(F)(F)F)n2)ccc1F  solubility kinetic    110 µM
 1  COc1cc(OC)cc(C(=O)N[C@H]2CC[C@H](Nc3nc(C)cc(N(C)C)n3)CC2)c1  solubility kinetic  > 250 µM
 2              Cc1cc(N(C)C)nc(NCC2CCOCC2)n1  solubility kinetic  > 250 µM
 3  COc1cc(Nc2nc(C)cc(N3CCCC(C#N)C3)n2)ccc1F (stereo not given)  solubility kinetic    219 µM
 4     COc1cc(Nc2nc(C)cc(NCc3ccccc3)n2)ccc1F  solubility kinetic  > 250 µM
 5              Cc1cc(N(C)C)nc(NCc2ccccc2)n1  solubility kinetic  > 250 µM
 6        COc1cc(Nc2nc(C)cc(N3CCCC3)n2)ccc1F  solubility kinetic    220 µM
 7      COc1cc(Nc2nc(C(C)C)cc(N(C)C)n2)ccc1F  solubility kinetic    170 µM
 8        Cc1cc(N(C)C)nc(Nc2ccc3c(c2)OCO3)n1  solubility kinetic  > 250 µM
 9  CCOC1CCCN(c2cc(C)nc(Nc3ccc(F)c(OC)c3)n2)C1 (stereo not given)  solubility kinetic  > 250 µM
10      COc1cccc(Nc2cc(C)nc(NCc3ccccc3)n2)c1  solubility kinetic  > 250 µM
11       COc1cc(Nc2nc(C)cc(N3CCOCC3)n2)ccc1F  solubility kinetic  > 250 µM
12           COc1cccc(Nc2nc(C)cc(N(C)C)n2)c1  solubility kinetic  > 250 µM
13     COc1cc(Nc2cc(C)nc(NCc3ccccc3)n2)ccc1F  solubility kinetic    180 µM
14  COc1cc(Nc2nc(C)cc(N3CCC(F)(F)C3)n2)ccc1F  solubility kinetic  > 250 µM

* * *

selectivity ratio listing for selected compounds.
# experiment_description: Selectivity ratio of pEC50 for African green monkey Vero cells to pEC50 for Trypanosoma cruzi amastigote forms infected in African green monkey Vero cells
# Type: toxicity
metric: selectivity ratio

In [3]: df
Out[3]:
                                    smi             metric  result
0       COc1ccc(Nc2nc(C)cc(N(C)C)n2)cc1  selectivity ratio    > 32
1          Cc1cc(N(C)C)nc(NCC2CCOCC2)n1  selectivity ratio     > 3
2   Cc1cc(N(C)C)nc(N[C@H](C)c2ccccc2)n1  selectivity ratio    > 40
3  COc1cc(Nc2nc(C(C)C)cc(N(C)C)n2)ccc1F  selectivity ratio    > 25
